Reference source for all entries: patent US20220193132A1

target: T1, recombinant human wild type EGFR protein (extracellular domain), native (human, UniProt P00533 25-645); assay: ELISA Exp 1, mAb supernatant
T1 construct: also called wt EGFR; EGFR WT
Measured attribute: ELISA absorbance 405 nm (A405)

F266-11H3 (antibody, V domains shown, Mouse hybridoma mAb) VH: QIQLVQSGPELKKPGETVKISCKASGYTFTTAGMQWVQKMPGKGFKWIGWINTHSGDPKYAEDFKGRFAFSLETYASTAYLQISNLKNEDTATYFCARTHIYDGYNYAMDYWGQGTSVTVSS VL: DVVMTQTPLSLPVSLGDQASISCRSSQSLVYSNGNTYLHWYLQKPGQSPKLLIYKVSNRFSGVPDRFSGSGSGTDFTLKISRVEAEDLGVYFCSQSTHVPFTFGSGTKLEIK
0.053
F263-5D8 (antibody, V domains shown, Mouse hybridoma mAb) VH: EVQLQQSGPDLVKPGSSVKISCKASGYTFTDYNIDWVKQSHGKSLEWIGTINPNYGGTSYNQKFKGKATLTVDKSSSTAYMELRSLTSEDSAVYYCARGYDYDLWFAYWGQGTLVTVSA VL: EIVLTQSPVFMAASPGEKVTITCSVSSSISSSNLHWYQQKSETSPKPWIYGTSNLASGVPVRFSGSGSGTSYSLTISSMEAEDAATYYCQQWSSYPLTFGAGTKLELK
1.38
F266-11C8 (antibody, V domains shown, Mouse hybridoma mAb; also called 11H5 (11C8)) VH: QIQLVQSGPELKKPGETVKISCKASGYTFTTAGMQWVQKMPGKGFKWIGWINTHSGDPKYAEDFKGRFAFSLETYASTAYLQISNLKNEDTASYFCARTHIYDGYNYAMDYWGQGTSVTVSS VL: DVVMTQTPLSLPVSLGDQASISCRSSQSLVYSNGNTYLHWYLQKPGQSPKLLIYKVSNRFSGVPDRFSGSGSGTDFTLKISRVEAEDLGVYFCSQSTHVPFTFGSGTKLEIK
0.011
F266-11B1 (antibody, V domains shown, Mouse hybridoma mAb) VH: QIQLVQSGPELKKPGETVKISCKASGYTFTTAGMQWVKKMPGKGFKWIGWINTHSGDPKYAEDFKGRFAFSLETYASTAYLQISNLKNEDTASYFCARTHIYDGYNYAMDYWGQGTSVTVSS VL: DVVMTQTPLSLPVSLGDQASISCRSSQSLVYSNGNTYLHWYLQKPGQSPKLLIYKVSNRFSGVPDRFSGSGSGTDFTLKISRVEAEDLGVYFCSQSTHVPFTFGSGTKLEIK
0.034
